The measurements presented in this section are drawn from patent US20220125947A1.

- Assay system: Vg5/Vd2 T cell receptor on SKW3 cells (UniProt A0JD36)
- Sequence (A0JD36 20-115): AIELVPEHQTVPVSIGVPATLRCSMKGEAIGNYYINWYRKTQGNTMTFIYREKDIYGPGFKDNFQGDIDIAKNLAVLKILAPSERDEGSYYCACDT
- Assay text: flow cytometry, DRC binding at 37°C on SKW3 cells expressing Vg5/Vd2
Max. Activity (fold over background): recorded values
Readout: Max. Activity (fold over background)

Binder	Readout	Assay result
VG9B382 (antibody, human IgG1, lambda, V domains shown) VH: QVQLQESGPGLVKPSETLSLTCTVSGDSISGYYWNYIRQPAGKGLDWIGRIFTTGNTNYNPSLKSRVTMSVDTSKNQFSLKLTSVTAADTAVYYCARERWDSSSSALYFDYWGQGTLVTVSS VL: QSVLTQPPSVSGAPGQRVTISCTGSSSNIGADYDIKWYQQLPGTAPKLLIYGNSNRPSGVPDRFSGSKSGTSVSLAITGLQAEDEADYYCQSYDSSMSGYVVFGGGTKLTVLG	Max. Activity (fold over background)	275
VG9B411 (antibody, human IgG1, kappa, V domains shown) VH: EVQLVESGGGLVKPGGSLRLSCSASGFTFSNYDMNWVRQAPGKGLEWVSSISSSSSYIYYADSVKGRFTISRDNAKNSLYLQMNSLRAEDTAVYHCARDVGVTTDYYYYGMDVWGQGTTVTVSS VL: EIVMTQSPSSVSASVGDRVTITCRASQGINSWLAWYQQDPYKAPKLLIYAASTLQSGVPSRFGGRGSGTEFTLTISSLQPEDFAVYYCQQYNNWPRTFGQGTKVDIKR	Max. Activity (fold over background)	2.76
VG9B201 (antibody, human IgG1, lambda, V domains shown) VH: QVTLKESGPTLVKPTQTLTLTCTFSGFSLTTHGVGVGWIRQPPRKALEWLALIYWNADKHYSPSLKSRLTITKDTSKNQVVLTMTHMDPVDTATYYCAHEGDWGHYFDFWGQGTLVTVSS VL: QLVLTQPPSVSAAPGQKVTISCSGSSSNIGNNDVSWYQQLPGTAPKLLIYDNNRRPSGIPDRFSGSKSGTSATLGITGLQTGDEADYYCETWDSSLSAIWVFGGGTKVTVLG	Max. Activity (fold over background)	205
VG9B86 (antibody, human IgG1, kappa, V domains shown) VH: QVQLQESGPGLVKPSETLSLTCTVSGDSISSSYWSWIRQPAGKGLECIGRFYSSGSTSYNPSLKSRVTMAIDTSKNQFSLKLTSVTAADTAVYYCARYSGSYWYFDLWGRGTTVTVSS VL: EIVLTQSPATLSLSPGERATLSCRASQSVSSYLAWYQQRPGQAPRLLIYDTSNRATGIPARFSGSGSGTDFTLTISSLAPEDFAVYYCQQRSDWLLTFGGGTKVEIKR	Max. Activity (fold over background)	207
